Target: Sodium/glucose cotransporter 2 (Homo sapiens)
Sequence (P31639 whole entry): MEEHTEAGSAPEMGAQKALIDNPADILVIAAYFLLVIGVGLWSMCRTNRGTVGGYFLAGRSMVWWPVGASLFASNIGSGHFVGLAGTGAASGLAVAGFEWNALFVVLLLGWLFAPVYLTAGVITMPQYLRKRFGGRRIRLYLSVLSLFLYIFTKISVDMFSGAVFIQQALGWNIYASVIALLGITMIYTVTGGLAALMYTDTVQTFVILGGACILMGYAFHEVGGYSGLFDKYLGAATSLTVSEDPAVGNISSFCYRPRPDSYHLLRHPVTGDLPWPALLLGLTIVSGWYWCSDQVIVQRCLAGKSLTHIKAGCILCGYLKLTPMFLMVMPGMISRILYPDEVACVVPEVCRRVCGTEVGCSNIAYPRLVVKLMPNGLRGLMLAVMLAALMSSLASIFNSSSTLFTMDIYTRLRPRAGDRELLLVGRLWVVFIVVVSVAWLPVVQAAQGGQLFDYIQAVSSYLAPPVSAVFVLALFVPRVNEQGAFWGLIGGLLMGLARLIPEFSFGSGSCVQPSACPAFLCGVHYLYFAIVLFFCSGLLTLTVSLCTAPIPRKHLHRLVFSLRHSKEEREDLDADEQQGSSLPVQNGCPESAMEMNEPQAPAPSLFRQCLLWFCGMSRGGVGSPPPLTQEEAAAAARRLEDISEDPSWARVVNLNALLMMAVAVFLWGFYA
Assay: In Vitro Human SGLT2 Inhibition Assay: Human sodium/glucose co-transporter type 2 (SGLT2; accession number P31639; GI:400337) was cloned into pIRESpuro2 vector for mammalian expression (construct: HA-SGLT2-pIRESpuro2). HEK293 cells were transfected with the human HA-SGLT2-pIRESpuro2 vector and the bulk stable cell line was selected in presence of 0.5 μg/mL of puromycin. Human HA-SGLT2 cells were maintained in DMEM media containing 10% FBS, 1% GPS and 0.5 μg/mL of puromycin. The HEK293 cells expressing the human HA-SGLT2 were seeded in 384 well plates (30,000 cells/well) in DMEM media containing 10% FBS, 1% GPS and 0.5 μg/mL of puromycin, then incubated overnight at 37 C, 5% CO2. Cells were then washed with uptake buffer (140 mM NaCl, 2 mM KCl, 1 mM CaCl2, 1 mM MgCl2, 10 mM HEPES, 5 mM Tris, 1 mg/mL bovine serum albumin (BSA), pH 7.3). Twenty microliters of uptake buffer with or without testing compounds were added to the cells. Then, 20 microliters of uptake buffer containing 14C-AMG (100 nCi) were added to the cells. The cell plates were incubated at 37° C., 5% CO2 for 1-2 hours. After washing the cells with uptake buffer, scintillation fluid was added (40 microliters/well) and 14C-AMG uptake was measured by counting radioactivity using a scintillation coulter ([…]; Packard Instruments).
pIC50: −log10 of the molar value.
measurement kind: pIC50

The reported value for CS[C@H]1O[C@@H](c2ccc(C)c(Cc3ccc(OCCNC(=O)NC(C)(C)CO)cc3)c2)[C@H](O)[C@@H](O)[C@@H]1O in terms of pIC50 is > 8.00
